Just for reference, patent US20190338002A1 is where these values come from.

- Assay target: T1, human alpha CGRP (SEQ ID NO: 80) (human, not fully specified)
- T1 peptide: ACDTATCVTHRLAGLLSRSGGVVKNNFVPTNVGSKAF
- Method description: cell-based or functional assay
Reported endpoint: cAMP assay IC50, SK-N-MC cells
State the value, then name its unit.

# example entries with known answers
Retrieve cAMP assay IC50, SK-N-MC cells measured for lipocalin mutein SEQ ID NO: 27 (designed binder, biotinylated by NHS chemistry for capture in SPR) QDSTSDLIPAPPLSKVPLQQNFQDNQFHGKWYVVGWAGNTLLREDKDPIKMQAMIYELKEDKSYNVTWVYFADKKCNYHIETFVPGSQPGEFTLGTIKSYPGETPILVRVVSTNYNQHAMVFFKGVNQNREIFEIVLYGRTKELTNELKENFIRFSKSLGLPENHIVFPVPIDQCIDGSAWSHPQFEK and print it.
0.1 nM

Answer with the recorded cAMP assay IC50, SK-N-MC cells for the binder listed here: cysteine-free lipocalin mutein SEQ ID NO: 32 (designed binder, biotinylated by NHS chemistry for capture in SPR) QDSTSDLIPAPPLSKVPLQQNFQDNQFQGKWYVVGWAGNTLLREDKDPIKMQAMIYELKEDKSYNVTWVYFADKKMNYHIETFVPGSQPGEFTLGTIKSYPGETPILVRVVSTNYNQHAMVFFKGVNQNREIFEIVLYGRTKELTNELKENFIRFSKSLGLPENHIVFPVPIDQYIDGSAWSHPQFEK
0.17 nM

Now, please, on to the next binder.
// Input: cysteine-free lipocalin mutein SEQ ID NO: 29 (designed binder, biotinylated by NHS chemistry for capture in SPR) QDSTSDLIPAPPLSKVPLQQNFQDNQFQGKWYVVGRAGNDVLREDKDPEKMEATIYELKEDKSYNVTDVGFVQKRLMYVTHTFVPGSQPGEFTLGNIESYPGVTSALVRVVSTDYNQHAMVFVKLVKQNRELFEITLYGRTKELTSELKENFIRFSKSLGLPENHIVFPVPIDQIDGSAWSHPQFEK . Output its cAMP assay IC50, SK-N-MC cells only.
0.14 nM
